test system: OVCAR3 cells; assay: MTT proliferation assay, OVCAR3; type: cell-based; conditions: 5 days compound exposure, 1:3 serial dilution starting at 10 μM;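 also: compound given as an 8- or 10-point series, one day after plating, with exposure covering roughly 3-4 cell doublings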
*1 amine or outer side, *2 acyl side, *3 side chain or, on linkers, in order; H or OH if unused. Where a SMILES comes first, the peptide text is derived from it. Bridges are numbered along the chain shown (N, C = ends). [ ]: non-standard residue; d: D form. The star is where a group is joined. X7 = CC(C)C(=O)N1[C@H]2CC[C@@H]1C=C(c1ccc(F)cc1C[C@@H](C(=O)[*:2])N(C)[*:1])C2; NMePhe(2-(4-MorPh),5-Cl) = CN[C@@H](Cc1cc(Cl)ccc1-c1ccc(N2CCOCC2)cc1)C(=O)O; X191 = CN([C@@H](Cc1cc(Cl)ccc1-c1ccc(N2CCOCC2)c(F)c1F)C(=O)[*:2])[*:1]; X31 = CN1CCC(c2ccc(-c3ccc(Cl)cc3C[C@@H](C(=O)[*:2])N(C)[*:1])cc2)CC1; X115 = CN([C@@H](Cc1cc(Cl)ccc1-c1ccc(N2CCNCC2)cc1)C(=O)[*:2])[*:1]; NMehhhLys(Me) = CN([C@@H](CCCCCCCN(C)[*:3])C(=O)[*:2])[*:1]; cBuCO(3,3-F2-1-CF3) = O=C(C1(C(F)(F)F)CC(F)(F)C1)*; Pro(trans-4-F) = O=C(O)[C@@H]1C[C@@H](F)CN1; Nva(5-OH) = N[C@@H](CCCO)C(=O)O; Gly(cPr) = N[C@H](C(=O)O)C1CC1
parameter measured: GI50 (nM)
State the answer as a number, implicitly in nM.

Some solved entries appear below for comparison.
CC(C)C[C@@H]1NC(=O)[C@@H](N(C)C(=O)[C@@H](NC(=O)[C@@H]2C[C@@H](F)CN2C(=O)C2(C(F)(F)F)CC(F)(F)C2)C2CC2)CCCCCCCN(C)C(=O)[C@H](Cc2cc(Cl)ccc2-c2ccc(C3CCN(C)CC3)cc2)N(C)C1=O [Example 358] ({cBuCO(3,3-F2-1-CF3)}-[Pro(trans-4-F)][Gly(cPr)][NMehhhLys(Me)]L[X31]; lactam 3-C) | 10
CC(C)C[C@@H]1NC(=O)[C@@H](N(C)C(=O)[C@H](CCCO)NC(=O)[C@@H]2C[C@@H](F)CN2C(=O)C2(C(F)(F)F)CC(F)(F)C2)CCCCCCCN(C)C(=O)[C@H](Cc2cc(Cl)ccc2-c2ccc(N3CCOCC3)cc2)N(C)C1=O [Example 421] ({cBuCO(3,3-F2-1-CF3)}-[Pro(trans-4-F)][Nva(5-OH)][NMehhhLys(Me)]L[NMePhe(2-(4-MorPh),5-Cl)]; lactam 3-C) | 10
CC(C)C[C@@H]1NC(=O)[C@@H](N(C)C(=O)[C@@H](NC(=O)[C@@H]2C[C@@H](F)CN2C(=O)C2(C(F)(F)F)CC(F)(F)C2)C2CC2)CCCCCCCN(C)C(=O)[C@H](Cc2cc(Cl)ccc2-c2ccc(N3CCNCC3)cc2)N(C)C1=O [Example 341] ({cBuCO(3,3-F2-1-CF3)}-[Pro(trans-4-F)][Gly(cPr)][NMehhhLys(Me)]L[X115]; lactam 3-C) | 10
CC(C)C[C@@H]1NC(=O)[C@@H](N(C)C(=O)[C@@H](NC(=O)[C@@H]2C[C@@H](F)CN2C(=O)C2(C(F)(F)F)CC(F)(F)C2)C2CC2)CC=CCCCCNC(=O)[C@H](Cc2cc(Cl)ccc2C2=CCN(C)CC2)N(C)C1=O (single isomer, unassigned) [Example 56-P2] | 430
CC(C)C[C@@H]1NC(=O)[C@@H](N(C)C(=O)[C@@H](NC(=O)[C@@H]2C[C@@H](F)CN2C(=O)C2(C(F)(F)F)CC(F)(F)C2)C2CC2)CCCCCCCN(C)C(=O)[C@H](Cc2cc(Cl)ccc2-c2ccc(N3CCOCC3)c(F)c2F)N(C)C1=O [Example 386] ({cBuCO(3,3-F2-1-CF3)}-[Pro(trans-4-F)][Gly(cPr)][NMehhhLys(Me)]L[X191]; lactam 3-C) | 20

Answer with the recorded GI50 of COCn1cc(-c2ccc(Cl)cc2C[C@H]2C(=O)N(C)CCCCC=CC[C@H](N(C)C(=O)[C@@H](NC(=O)[C@@H]3C[C@@H](F)CN3C(=O)C3(C(F)(F)F)CC(F)(F)C3)C3CC3)C(=O)N[C@@H](CC(C)C)C(=O)N2C)cn1 [Example 79] only. 40

Answer with the recorded GI50 of CC(C)C[C@@H]1NC(=O)[C@@H](N(C)C(=O)[C@@H](NC(=O)[C@@H]2C[C@@H](F)CN2C(=O)C2(C(F)(F)F)CC(F)(F)C2)C2CC2)CCCCCCCN(C)C(=O)[C@H](Cc2cc(F)ccc2C2=C[C@H]3CC[C@@H](C2)N3C(=O)C(C)C)N(C)C1=O [Example 318] ({cBuCO(3,3-F2-1-CF3)}-[Pro(trans-4-F)][Gly(cPr)][NMehhhLys(Me)]L[X7]; lactam 3-C) only. 10

Origin of measurements: patent US20240408169A1
